Kindly state growth inhibition for each of the entries shown.
experiment: NCI Yeast Anticancer Drug Screen. Data for the rad50 strain (AID 155);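 note: 0% = growth of vehicle-only cultures of the same strain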; details: S. cerevisiae rad50 strain growth inhibition; at 5.0 µM (retest, dose inferred, filed as 0.5); stronger effect = higher value
The panel holds about 79,000 compounds, 15% with a hit somewhere; the sample as a whole holds those more often.
Answers are plain numbers, in %.

// known answers, use as guide
| compound | unit.label | growth inhibition |
| --- | --- | --- |
| CCN(CC)C(=O)C(C)OC(C)=O (stereo unspecified) | % | -1 |
| COc1ccc(C2C3CCCC(C3=O)C(c3ccc(OC)cc3)N2N=O)cc1 (stereo unspecified) | % | 0 |
| CN=C(NC1CCCCC1)c1ccc(NC(=O)c2ccc(C(=O)Nc3ccc(C(=NC)NC4CCCCC4)cc3)cc2)cc1 | % | 0 |
| Cc1ccc(NN(C)c2ccc(C)cc2)cc1 | % | -4 |
| Cc1ccccc1C1SCc2nc3ccccc3n21 (stereo unspecified) | % | -9 |
| Cc1c2ccccc2c(CCl)c2ccc3ccccc3c12 | % | 99 |
| COc1ccc2c(c1)n([O-])c1cc(C#N)ccc1[n+]2=O | % | 94 |
| Clc1ccc(OCC2CO2)c(Cl)c1 (stereo unspecified) | % | 43 |

Give growth inhibition for each listed item.
1. c1ccc([P+](Cc2ccc(C[P+](c3ccccc3)(c3ccccc3)c3ccccc3)s2)(c2ccccc2)c2ccccc2)cc1
2. O=C(Nn1c(=O)c(=O)oc2ccccc21)C(F)(F)F
3. CCOC(=O)C1=C(c2ccccc2)OC(N)=C(C#N)C1c1ccc(C)cc1 (stereo unspecified)

Result:
35
0
4
